molecular target: human cannabinoid CB1 receptor (Homo sapiens, UniProt P21554); construct: expressed in transfected cells; host or cells: Chinese hamster ovary (CHO) cells, stably transfected; membrane preparation; test: CB1 receptor affinity, [3H]CP-55,940 radioligand binding to CHO cell membranes; conditions: Table C; read-out: CB1 Receptor Activity
Sequence (P21554 whole entry): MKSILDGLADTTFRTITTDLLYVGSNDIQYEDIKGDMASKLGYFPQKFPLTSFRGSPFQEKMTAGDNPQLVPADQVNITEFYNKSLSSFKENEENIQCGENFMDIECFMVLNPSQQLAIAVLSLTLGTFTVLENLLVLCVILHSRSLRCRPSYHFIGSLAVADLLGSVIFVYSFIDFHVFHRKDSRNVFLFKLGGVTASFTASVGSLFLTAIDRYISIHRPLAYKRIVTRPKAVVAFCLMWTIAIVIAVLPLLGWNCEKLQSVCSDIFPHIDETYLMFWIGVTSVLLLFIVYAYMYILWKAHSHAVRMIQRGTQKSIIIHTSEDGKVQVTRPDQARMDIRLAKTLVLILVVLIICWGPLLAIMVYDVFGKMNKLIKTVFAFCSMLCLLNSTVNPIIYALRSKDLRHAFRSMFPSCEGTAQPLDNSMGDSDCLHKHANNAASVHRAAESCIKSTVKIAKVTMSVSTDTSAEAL
observable: IC50

# compound, observable, measurement
rows = [
    ("Cc1c(C(=O)NN2CCCC(C(N)=O)C2)nn(-c2ccc(Cl)cc2Cl)c1-c1ccc(Cl)cc1 (stereo not drawn) [Example C-3]", "IC50", "< 100 nM"),
    ("CCOC(=O)C1CCN(NC(=O)c2nn(-c3ccc(Cl)cc3Cl)c(-c3ccc(Cl)cc3)c2C)CC1 [Example C-2]", "IC50", "< 1000 nM"),
]

Note: attention shifts to another entry.
Determine from records and report IC50 for CCOC(=O)C1CCCN(NC(=O)c2nn(-c3ccc(Cl)cc3Cl)c(-c3ccc(Cl)cc3)c2C)C1 (stereo not drawn) [Example C-1]
< 1000 nM

----------
The following compounds are listed with their measured pIC50 values.
biological target: human cannabinoid CB1 receptor (Homo sapiens); construct: expressed in transfected cells; host or cells: Chinese hamster ovary (CHO) cells, stably transfected; membrane preparation; assay: CB1 receptor affinity, [3H]CP-55,940 radioligand binding to CHO cell membranes; conditions: Table A; read-out: CB1 Receptor Activity
pIC50: −log10 of the molar value.

See these solved cases before continuing.
# compound, measurement
data = [
    ("CCOC(=O)C(C)NC(=O)c1nn(-c2ccc(Cl)cc2Cl)c(-c2ccc(Cl)cc2)c1C (stereo not shown)", "> 6.00"),
    ("Cc1c(C(=O)NC(Cc2ccccc2)C(=O)O)nn(-c2ccc(Cl)cc2Cl)c1-c1ccc(Cl)cc1 (stereo not shown)", "> 5.00"),
    ("CCOC(=O)CCNC(=O)c1nn(-c2ccc(Cl)cc2Cl)c(-c2ccc(Cl)cc2)c1C", "> 5.00"),
]

For the compound CCOC(=O)C(NC(=O)c1nn(-c2ccc(Cl)cc2Cl)c(-c2ccc(Cl)cc2)c1C)C(C)CC (stereo not shown) , give its reported pIC50.
> 7.00

Note down pIC50 recorded for CCOC(=O)CC(C)NC(=O)c1nn(-c2ccc(Cl)cc2Cl)c(-c2ccc(Cl)cc2)c1C (stereo not shown)
> 6.00

----------
biological target: human cannabinoid CB1 receptor (Homo sapiens, UniProt P21554); construct: expressed in transfected cells; host or cells: Chinese hamster ovary (CHO) cells, stably transfected; membrane preparation; assay: CB1 receptor affinity, [3H]CP-55,940 radioligand binding to CHO cell membranes; conditions: Table E; read-out: CB1 Receptor Activity
Measured IC50 values are reported for all entries that follow.

# compound, IC50
rows = [
    ("CCOC(=O)C1CCC(NC(=O)c2nn(-c3ccc(Cl)cc3Cl)c(-c3ccc(Cl)cc3)c2C)CC1 (centres unmarked)", "< 10 µM"),
]

Name the recorded IC50 of the compound listed here: Cc1c(C(=O)NC2CCC(C(N)=O)CC2)nn(-c2ccc(Cl)cc2Cl)c1-c1ccc(Cl)cc1 (centres unmarked)
< 10 µM

----------
biological target: human cannabinoid CB1 receptor (Homo sapiens, UniProt P21554); construct: expressed in transfected cells; host or cells: Chinese hamster ovary (CHO) cells, stably transfected; membrane preparation; assay: CB1 receptor affinity, [3H]CP-55,940 radioligand binding to CHO cell membranes
pIC50: −log10 of the molar value.
Each item that follows carries a reported pIC50.

Consider the reported pIC50 for these molecules:
# molecule, pIC50
rows = [
    ("CCOC(=O)C(NC(=O)c1nn(-c2ccc(Cl)cc2Cl)c(-c2ccc(Cl)cc2)c1C)C(C)(C)C (stereo not drawn)", "> 7.00"),
    ("Cc1c(C(=O)NC(C(N)=O)C(C)(C)C)nn(-c2ccc(Cl)cc2Cl)c1-c1ccc(Cl)cc1 (stereo not drawn)", "> 7.00"),
]

// next item, pIC50 requested
Read off the recorded pIC50 for CCOC(=O)C(CC(C)C)NC(=O)c1nn(-c2ccc(Cl)cc2Cl)c(-c2ccc(Cl)cc2)c1C (stereo not drawn)
> 7.00
